Test system: CAKI-1 renal
Experiment: NCI-60 one-dose screen, 48 h (100 = growth as untreated, 0 = no growth, -100 = all killed)
Settings: 10 µM unless noted
This is part of a sample that, as a whole, favours compounds with a hit. Of some 83,000 tested, about 20% had one in any assay.
// 0 strictly below 40% in growth; 1 otherwise

Record excerpt, results attached:
{"columns": ["compound", "assignedLabel"],
 "data": [
  ["Cc1cc2cc3ccc(N(C)C)cc3nc2cc1N", 0],
  ["Cn1ccnc1C(=O)/C=C/c1ccc(CC(=O)Nc2ccc(Cl)cc2)cc1", 0],
  ["O=C1c2ccccc2CCC12OC2c1cn(-c2ccccc2)nc1-c1ccc(Cl)cc1 (stereo unspecified)", 1]
]}

API: above_or_equal(metric=growth, cutoff=40%) for item Cc1cc2nc3c4cccc(O)c4n(CCN(C)C)c3nc2cc1C
0

API: above_or_equal(metric=growth, cutoff=40%) for item O=C(NCCc1ccccc1)Nc1ccc2cc3ccc(NC(=O)NCCc4ccccc4)cc3nc2c1
1

API: above_or_equal(metric=growth, cutoff=40%) for item N#C/C(=C\c1ccc([N+](=O)[O-])s1)c1nc2cc(Cl)ccc2s1
1

API: above_or_equal(metric=growth, cutoff=40%) for item O=C(Nc1ccc(NC(=O)c2cc(=O)[nH]c3ccccc23)cc1)Nc1cccc(Cl)c1
1

API: above_or_equal(metric=growth, cutoff=40%) for item COC(=O)CNC(=O)[C@]12CCC(C)(C)C[C@H]1C1=CC[C@@H]3[C@@]4(C)Cc5c([nH]c6ccccc56)C(C)(C)[C@@H]4CC[C@@]3(C)[C@]1(C)CC2
1

API: above_or_equal(metric=growth, cutoff=40%) for item NC(=NCCCOc1ccc(F)cc1)Nc1ccc(I)cc1
1

API: above_or_equal(metric=growth, cutoff=40%) for item N#C/C(=C\c1ccccn1)c1nc2cc(Cl)ccc2s1
1

---

System: NCI-H322M lung
Assay: NCI-60 one-dose screen, 48 h
Conditions: 10 µM unless noted
Compounds without any hit were thinned out: in the full panel of roughly 83,000, 20% have a hit. Calls of active or inactive are those of the source. The calls were made as follows: active = growth percent below 10; inactive = the rest.
Bench note: report the call from Yes (active), No (inactive)

Record excerpt, results attached:
{"columns": ["compound", "assignedLabel"],
 "data": [
  ["C/C(=N\\NC(=O)CSc1nc2ccccc2c(=O)n1CCc1ccc(S(N)(=O)=O)cc1)c1ccccn1", "No"],
  ["Cc1cc2c(C(=O)NCC#N)cccc2n1-c1nc2c(c(NCc3ccccc3)n1)CCCC2", "Yes"],
  ["CCOC(=O)c1cc(C(=O)c2ccc(OC)c(OC)c2)n2c1ccc1ccccc12", "No"],
  ["Oc1ccc(C(c2ccc(O)cc2)c2ccc(Br)cn2)cc1", "Yes"],
  ["O=S(=O)(NCCNc1nccc(-c2c(-c3cccc(O)c3)nc3occn23)n1)c1ccccc1", "No"]
]}

GET /call?item= CNC(=O)c1cc(Cn2nc(C)c(NC(=O)Nc3ccc(Cl)c(C(F)(F)F)c3)c2C)ccn1 returns the recorded outcome of this test.
No

GET /call?item= Cn1cc(-c2nc(-c3c[nH]c4c(Cl)nccc34)cs2)c2cc(Br)ccc21 returns the recorded outcome of this test.
No

---

System: HS 578T breast
Assay: NCI-60 one-dose screen, 48 h
Conditions: 10 µM unless noted
The panel holds about 83,000 compounds, 20% with a hit somewhere; the sample as a whole holds those more often. The source made the active and inactive calls. Rule for the calls: active = growth percent below 10; inactive = the rest.
Bench note: report the call from Y = active, N = inactive

Record excerpt, results attached:
{"columns": ["molecule", "assignedLabel"],
 "data": [
  ["N#C/C(=C\\c1c(-c2ccccc2)[nH]c2ccccc12)C(=O)c1ccc(Cl)cc1", "Y"],
  ["C=CCn1c(-c2ccc(-c3nc4ccc(C)cc4[nH]3)cc2)n[nH]c1=S", "N"],
  ["N=C1C(c2nc3ccccc3s2)=C(O)CN1c1cc(Cl)cc(Cl)c1", "N"],
  ["CC(C)=CCC[C@](C)(O)[C@H]1CC[C@]2(C)[C@@H]1CC[C@@H]1[C@@]3(C)C/C(=C/c4ccccc4)C(=O)C(C)(C)[C@@H]3CC[C@]12C", "N"],
  ["COc1cc(C=O)ccc1OC1OC(COC(C)=O)C(OC(C)=O)C(OC(C)=O)C1OC(C)=O (stereo not drawn)", "N"],
  ["CC(Oc1ccc(C(=O)O)cc1C(F)(F)F)c1ccc(Oc2ccccc2)cn1 (stereo not drawn)", "N"],
  ["O=C(Nc1cccc(C2=NCCN2)c1)c1ccc(-c2ccc(C(=O)Nc3cccc(C4=NCCN4)c3)cc2)cc1", "N"],
  ["COc1ccc(OC)c(-c2cc(-c3ccc(Cl)cc3)c3c(N)c(C(=O)c4ccc(Cl)cc4)sc3n2)c1", "N"]
]}

GET /call?item= CCNc1nc2cc(Nc3ccnc4cc(Cl)ccc34)ccc2o1 returns the recorded outcome of this test.
N

GET /call?item= CC(c1ccccc1)C(C(=O)c1ccccc1)c1ccccc1 (stereo not drawn) returns the recorded outcome of this test.
N

GET /call?item= COc1cc2nc(-c3ccc(C(F)(F)F)cc3)cc(OCCCN3CCOCC3)c2cc1OC returns the recorded outcome of this test.
N

GET /call?item= CCN1Cc2nc3sc(C)c(C)c3c(=O)n2C=C1C returns the recorded outcome of this test.
N

GET /call?item= C[C@H]1[C@H]2[C@H]3CC[C@@H]4[C@@]5(C)CC[C@H](O)C(C)(C)[C@@H]5CC[C@@]4(C)[C@]3(C)CC[C@]23CO[C@]1(C)[C@@H](C(=O)/C=C\c1ccco1)C3 returns the recorded outcome of this test.
N

---

Examples of compounds with documented growth follow.
System: M14 melanoma
Assay: NCI-60 one-dose screen, 48 h (100 = growth as untreated, 0 = no growth, -100 = all killed)
Conditions: 10 µM unless noted
Compounds without any hit were thinned out: in the full panel of roughly 83,000, 20% have a hit.
Write the value in % as a bare number.

Please review the entries below; each comes with its answer.
{"columns": ["compound", "measuredResult"],
 "data": [
  ["N/C(=N\\C(N)=N\\c1nc2ccccc2s1)c1cnccn1", 23.2],
  ["COc1ccc(C(=O)CC#N)cc1", 110],
  ["C=C(C)[C@@H]1CC[C@]2(C(=O)N3CCN(C)CC3)CC[C@]3(C)[C@H](CC[C@@H]4[C@@]5(C)C/C(=C/c6cccnc6)C(=O)C(C)(C)[C@@H]5CC[C@]43C)[C@@H]12", 69.5]
]}

Write down growth measured for item CNC(=O)c1cncc(Cn2nc(C)c(NC(=O)c3ccc(COc4ccc(C(F)(F)F)cc4C)cc3)c2C)c1
73.3

Write down growth measured for item N#C/C(=C\c1ccc([N+](=O)[O-])s1)c1nc2cc(Cl)ccc2s1
-78.1

Write down growth measured for item Cc1c(C)c([N+](=O)[O-])c(C)c([N+](=O)[O-])c1C
108

Write down growth measured for item O=c1[nH]nc(-c2ccccc2)c2sc3ncc(-c4ccc(Br)cc4)n3c12
42.3

Write down growth measured for item COc1cc2c(=O)n(CCN(C)C)c3c4cc5c(cc4ccc3c2cc1OC)OCO5
-56.7

Write down growth measured for item O=C(CCN1CCCC1)c1ccc([N+](=O)[O-])cc1
102

Write down growth measured for item O=C1Nc2ccc(F)cc2/C1=C\c1c(-c2ccccc2)nc2ccccn12
48.7

Write down growth measured for item CCOC(=O)c1cc(C#N)n2ccc3ccccc3c12
108

---

Test system: NCI-H226 lung
Assay: NCI-60 one-dose screen, 48 h
Conditions: 10 µM unless noted
Compounds without any hit were thinned out: in the full panel of roughly 83,000, 20% have a hit. Calls of active or inactive are those of the source. Rule for the calls: active = growth percent below 10; inactive = the rest.
Bench note: report the call from true (1) (active), false (0) (inactive)

{"columns": ["molecule", "assignedLabel"],
 "data": [
  ["CC(C)(C)[Si](C)(C)OC1[C@@H](O[Si](C)(C)C(C)(C)C)[C@@H](CNC(=O)NC(=O)CCl)O[C@H]1n1cnc2c(NC(=O)Nc3ccccc3)ncnc21 (stereo partly drawn)", "true (1)"],
  ["CN(C)CCC(=O)c1ccc([N+](=O)[O-])cc1", "false (0)"],
  ["Oc1c(Cl)cc(Cl)c(Cl)c1CNCCNCc1c(O)c(Cl)cc(Cl)c1Cl", "false (0)"],
  ["O=[N+]([O-])c1ccc(N=Nc2cc(S(=O)(=O)O)c3cccc(S(=O)(=O)O)c3c2O)cc1", "false (0)"],
  ["Cn1ccc2c1CC1CN(Cc3ccco3)C(=O)C1C2C(=O)O (stereo not drawn)", "false (0)"],
  ["Cc1cc2nc3c4ccc(Br)cc4n(CCN(C)C)c3nc2cc1C", "true (1)"],
  ["CC(=O)Oc1ccc(/C=N/NC(N)=S)nc1", "false (0)"]
]}

GET /call?item= COC(=O)N[C@H]1CCc2c(Cl)c(OC)c(OC)c(OC)c2-c2ccc(SC)c(=O)cc21 returns the recorded outcome of this test.
false (0)
